Value source: patent US20240252668A1

Would you kindly list GI50 for each of these compounds?
System: A375 skin melanoma cell line (homozygous BRAF V600E)
Assay: Cell proliferation assay (resazurin cell viability), A375 cell line
Type: cell-based
Conditions: A375 (GNAQ/11 wild type); 96 hours of treatment; read-out: GI50 by cell line, A375
Starred links: 1 amine or outer side, 2 acyl side, 3 side chain; linkers in the order of their positions; H or OH if unused. Positions of bridges follow the written chain, without caps; N, C: chain ends. Non-standard residues stand in square brackets, D forms with d. Residues, ends and D or L forms follow the SMILES beside them. ξ: configuration not given here. *: point of attachment. Leu(3R-O(AcLeu(3R-OH))) = CC(=O)N[C@H](C(=O)O[C@H](C(C)C)[C@H](N)C(=O)O)[C@H](O)C(C)C; Leu(3R-OH,Nα-propionyl) = CCC(=O)N[C@H](C(=O)*)[C@H](O)C(C)C; X1 = CC(C)[C@@H](O[*:3])[C@H](N[*:1])C(=O)[*:2]; ξLeu(3ξ-OH) = CC(C)C(O)C(N)C(=O)O; NMeT = CN[CH](C(=O)O)[CH](C)O; dPhLac = O=C(O)[C@H](O)Cc1ccccc1; X2 = CC(C)C=C(N[*:1])C(=O)[*:2]; PhLac = O=C(O)[CH](O)Cc1ccccc1; NMeA = CN[CH](C)C(=O)O; dNMeA = CN[C@H](C)C(=O)O; NMeDha = C=C(NC)C(=O)O

Fill blank: measured GI50 of the compound CCC(=O)N[C@H](C(=O)O[C@H](C(C)C)[C@@H]1NC(=O)[C@H](C)N(C)C(=O)[C@H](C)NC(=O)[C@@H](C)N(C)C(=O)[C@@H](Cc2ccccc2)OC(=O)[C@@H](NC(C)=O)[C@@H](C(C)C)OC(=O)[C@H]([C@@H](C)OC)N(C)C1=O)[C@H](O)C(C)C [Compound 11] (Ac-[X1][dPhLac][dNMeA]A[NMeA][X1](Leu(3R-OH,Nα-propionyl))[NMeT](Me); ester 1-C) is ____.
> 260 nM

Fill blank: measured GI50 of the compound C=C(C(=O)N[C@@H](C)C(=O)N(C)[C@@H](C)C(=O)N[C@H](C(=O)N(C)[C@H](C(=O)O)[C@@H](C)OC)[C@H](OC(=O)[C@@H](NC(=O)CC)[C@H](O)C(C)C)C(C)C)N(C)C(=O)[C@@H](Cc1ccccc1)OC(=O)C(=CC(C)C)NC(C)=O [Compound 5] (Ac-[X2][dPhLac][NMeDha]A[NMeA][X1](Leu(3R-OH,Nα-propionyl))[NMeT](Me)-OH) is ____.
> 260 nM

Fill blank: measured GI50 of the compound C=C1C(=O)N[C@@H](C)C(=O)N(C)[C@@H](C)C(=O)N[C@@H]([C@H](OC(=O)[C@@H](NC(C)=O)[C@H](O)C(C)C)C(C)C)C(=O)N(C)[C@@H]([C@@H](C)OC)C(=O)O[C@H](C)[C@H](NC(C)=O)C(=O)O[C@H](Cc2ccccc2)C(=O)N1C [Compound 13] (Ac-T[dPhLac][NMeDha]A[NMeA][Leu(3R-O(AcLeu(3R-OH)))][NMeT](Me); ester 1-C) is ____.
> 260 nM

Fill blank: measured GI50 of the compound C=C1C(=O)NC(C)C(=O)N(C)C(C)C(=O)NC(C(O)C(C)C)C(=O)N(C)C(C(C)OC)C(=O)OC(C)C(NC(C)=O)C(=O)OC(Cc2ccccc2)C(=O)N1C (stereo not shown) [Compound 15] (Ac-T[PhLac][NMeDha]A[NMeA][ξLeu(3ξ-OH)][NMeT](Me); ester 1-C; configuration not given here) is ____.
> 10000 nM
